Test system: MDA-MB-435
Test: NCI tumour cell line growth inhibition, 48 h
Active and inactive are the calls of the source. No stated cut-off is given here; in the data, active = GI50 up to about 1.1 µM and inactive = higher.
Permitted responses: 1 (active), -1 (inactive)

Before answering, review these 6 worked examples.
COC(=O)[C@H](Cc1ccccc1)NC(=O)c1ccc(CNC(=O)/C=C/c2ccc(-c3ccccc3)cc2)cc1 : -1
CCOC(=O)C(NC(=O)CC)(Nc1ccc(S(=O)(=O)Nc2ncccn2)cc1)C(F)(F)F (stereo not drawn) : -1
CN(CCCNC(=O)c1cc(-c2ccccc2)nc2ccccc12)CCCNC(=O)c1cc(-c2ccccc2)nc2ccccc12 : -1
COc1ccc(/N=c2/[nH]c(N)c(C(=O)c3ccc(OC)cc3)s2)cc1 : 1
c1ccc(/N=C(\N2CCCC2)N(CCN2CCCC2)c2ccccc2)cc1 : -1
Cc1ccc(SC2=C(N(C)C)C(=O)c3ccccc3C2=O)cc1 : 1

Q: Per the records of this test, what outcome belongs to COc1cccc2[nH]c(-c3ccccn3)nc12 ?
A: -1

Q: Give the logged outcome of this assay for the following compound: CCCC[C@H]1C(=O)O[C@H](C)[C@H](NC(=O)c2cccc(NC=O)c2OC)C(=O)O[C@@H](C)[C@@H]1OC(=O)C(C)CC.CCCC[C@H]1C(=O)O[C@H](C)[C@H](NC(=O)c2cccc(NC=O)c2OC)C(=O)O[C@@H](C)[C@@H]1OC(=O)CC(C)C (stereo partly drawn)
A: -1

* * *

Test system: KM12
Assay: NCI tumour cell line growth inhibition, 48 h
Activity calls are given as the source filed them. Cut-off read from the data, not from the text of the source: active = GI50 up to about 1.1 µM and inactive = higher.
Please answer using one outcome listed in Y (active), N (inactive)

Q: // return assay outcome for COc1ccc(-n2nnnc2C2(Nc3ccccc3)CCN(Cc3ccccc3)CC2)cc1
A: N

Q: Check the results log: what was the call for CC(C)(C)OC(=O)NC(Cc1c[nH]cn1)C(=O)N1CCCC1C(N)=O (centres undefined) ?
A: N

* * *

Tested on: UACC-62
Assay: NCI tumour cell line growth inhibition, 48 h
Activity calls are given as the source filed them. Rule as the data show it: active = GI50 up to about 1.1 µM and inactive = higher.
Answer with one of the outcomes given here: active, inactive

O=C1NC2(CCCCC2)C2CCCCC=C12 (configuration not stated) : inactive
CC1=C(C#N)C2C(=C(C)N1)C(N)=Nc1ccccc12 (configuration not stated) : inactive

Continue with the compound presented below.
Q: Check the results log: what was the call for COc1cc(OC(C)=O)cc2c(OC(C)=O)ccc(OC(C)=O)c12 ?
A: inactive

* * *

Test system: NCI-H226
Experiment: NCI tumour cell line growth inhibition, 48 h
The source made the active and inactive calls. Rule as the data show it: active = GI50 up to about 1.1 µM and inactive = higher.
Recorded GI50 by entry

CCOC(=O)C(NC(=O)CC)(Nc1ccc(S(=O)(=O)Nc2ncccn2)cc1)C(F)(F)F (centres undefined) : > 100 µM (inactive)
Nc1cc2c(nnn2C2OC(COCc3ccccc3)C(OCc3ccccc3)C2OCc2ccccc2)c(=O)[nH]1 (centres undefined) : 15.5 µM (inactive)
Cc1ccc(SC2=C(N(C)C)C(=O)c3ccccc3C2=O)cc1 : 9.82 µM (inactive)
CCCC[C@H]1C(=O)O[C@H](C)[C@H](NC(=O)c2cccc(NC=O)c2OC)C(=O)O[C@@H](C)[C@@H]1OC(=O)C(C)CC.CCCC[C@H]1C(=O)O[C@H](C)[C@H](NC(=O)c2cccc(NC=O)c2OC)C(=O)O[C@@H](C)[C@@H]1OC(=O)CC(C)C (some centres undefined) : 12.2 µM (inactive)
O=S1(=O)c2ccccc2-c2nccc3ccnc1c23 : 43.5 µM (inactive)

Entry CCOC(=O)/C(C(=S)NC)=C(/N)N1CCCC1 ; GI50 = > 100 µM (inactive)

get_value(item= CC(=O)OCC1OC(n2c(=S)n(-c3ccccc3)c(=O)c3cc(Br)ccc32)C(OC(C)=O)C1OC(C)=O (centres undefined) , readout=GI50) returns > 100 µM (inactive)

Lab note: measured GI50 of CC(=O)Oc1cc2oc(=O)cc(C)c2cc1OC(C)=O was 40.2 µM (inactive)

For this molecule ( Cc1cc(=O)oc2cc(SC(=O)N(C)C)ccc12 ), measured GI50 is > 100 µM (inactive)

* * *

Test system: U-251
Assay: NCI tumour cell line growth inhibition, 48 h
The source made the active and inactive calls. Rule as the data show it: active = GI50 up to about 1.1 µM and inactive = higher.
# GI50 listing for each entry below

COc1c(/C=C/C(C)(C)O)cc(C2CC(=O)c3c(O)cc(O)cc3O2)cc1CC=C(C)C (stereo unspecified) : 7.71 µM (inactive)
O=C(Nc1ccccc1)c1cc2ccccc2c(/N=N/c2ccc([N+](=O)[O-])cc2)c1O : 31.4 µM (inactive)
O=S1(=O)c2cnccc2N=C(NCc2cccc3ccccc23)N1c1ccccc1 : 43.8 µM (inactive)
CCN(CC)P1(=S)Oc2ccc3ccccc3c2-c2c(ccc3ccccc23)O1 : > 100 µM (inactive)
CCCCC(=O)N/S(=N/C(=O)c1ccccc1)C(Cl)(Cl)Cl (stereo unspecified) : > 100 µM (inactive)
Cc1cccc(Cl)c1NC(=O)/C=C/c1ccccc1 : 87.7 µM (inactive)
C[C@@]1(O)C2CC3CC1(c1ccccc1)CC(/C3=N/O)/C2=N\O (stereo partly specified) : > 100 µM (inactive)
c1ccc(CN2CCC(CNc3ncnc4ccccc34)C2)cc1 (stereo unspecified) : 76.9 µM (inactive)

Value (GI50, U-251) for record O=C1Oc2ccccc2C(=O)/C1=C/N1C(=O)N/C(=C\c2ccccc2O)C1=O = 57.7 µM (inactive)

Note to self: GI50 of CCNCCNC(=O)c1ccc(I)cc1 with U-251 was > 100 µM (inactive)

For the molecule O=c1cc(CO)n(CCc2c[nH]c3ccccc23)cc1O , the measured GI50 on U-251 was 39.6 µM (inactive)

* * *

Test system: A549
Assay: NCI tumour cell line growth inhibition, 48 h
The source made the active and inactive calls. No stated cut-off is given here; in the data, active = GI50 up to about 1.1 µM and inactive = higher.
Parameter call: string, one of TRUE (active), FALSE (inactive)

The following molecules have reported results that may help.
O=C(OCc1ccccc1)N(CCCCN(CCCNCc1ccccc1)C(=O)OCc1ccccc1)CCCNCc1ccccc1 : TRUE
C=C(C)C12CC3CC(/C(=N/O)C(C1)/C3=N\O)[C@@]2(C)O (stereo partly specified) : FALSE
O=S1(=O)[C@H](c2ccccc2)c2c(-c3ccccc3)sc(-c3ccccc3)c2[C@@H]1c1ccccc1 : FALSE
CCOP1(=O)OCC2OC(n3cnc4c(N)ncnc43)C(O)C2O1.c1ccccc1 (stereo unspecified) : FALSE
COC(=O)[C@H](Cc1ccccc1)NC(=O)c1ccc(CNC(=O)/C=C/c2ccc(-c3ccccc3)cc2)cc1 : FALSE
C[N+](C)(C)Cc1c(CC#N)[nH]c2ccccc12 : FALSE

Q: Each molecule tested received a call. Report the one for C/C=C(\C)C(=O)OC1C2C(C)C(=O)OC2C(O)C(C)C2C=CC(=O)C21C (stereo unspecified) .
A: FALSE

* * *

Test system: NCI-H23
Assay: NCI tumour cell line growth inhibition, 48 h
The source made the active and inactive calls. Rule as the data show it: active = GI50 up to about 1.1 µM and inactive = higher.
measurementLabel: GI50

COC(=O)CC(=O)Nc1sccc1S(=O)(=O)c1ccccc1 : > 100 µM (inactive)

Value sought: GI50, system NCI-H23, item Cc1ccc(NC(=O)c2cccc(OP(=O)(Nc3ccc(C)cc3)Nc3ccc(C)cc3)c2)cc1 . Result: 10.9 µM (inactive)

GET /values?item= C/C=C1\NC(=O)[C@H](Cc2ccccc2)NC(=O)[C@@H](C(C)C)NC(=O)[C@@H]([C@@H](C)CC)NC(=O)[C@H](NC(=O)[C@H](NC(=O)[C@H](CCCN)NC(=O)[C@H]2CCCN2C(=O)[C@H](NC(=O)[C@@H](NC(=O)[C@@H](NC(=O)[C@H](NC(=O)CCCC(C)C)C(C)C)[C@@H](C)O)C(C)C)C(C)C)[C@@H](C)CC)[C@@H](C)OC(=O)[C@H](C(C)C)NC1=O &system= NCI-H23 returns GI50: 4.2 µM (inactive)

For COc1ccc(/C=C/[N+](=O)[O-])cc1 on NCI-H23, measured GI50 was 9.75 µM (inactive)

Log: NCI-H23, compound C[N+](C)(C)CC(=O)N/N=c1\cc(C(=O)Nc2ccc(N=O)cc2C#N)oc2cc(O)ccc12 , GI50 = > 100 µM (inactive)

* * *

Test system: NCI-H522
Test: NCI tumour cell line growth inhibition, 48 h
Activity calls are given as the source filed them. No stated cut-off is given here; in the data, active = GI50 up to about 1.1 µM and inactive = higher.
measurementLabel: GI50

O=c1cc(CO)n(CCc2c[nH]c3ccccc23)cc1O : 24.7 µM (inactive)

Entry CC(C)(C)OC(=O)NC(Cc1c[nH]cn1)C(=O)N1CCCC1C(N)=O (stereo unspecified) , GI50 reported as > 100 µM (inactive)

Notebook: O=S1OC[C@H](CCCl)O1 (stereo partly specified) , GI50 read as > 100 µM (inactive)

// recorded GI50 for O=S(=O)(O)c1cc(Nc2ccnc3ccccc23)c2c(S(=O)(=O)O)cc(S(=O)(=O)O)cc2c1 : > 100 µM (inactive)

The reported value for CC/C=C1\N=C(c2ccc(Cl)cc2)OC1=O in terms of GI50 is > 100 µM (inactive)
